Provenance of the data: paper PMC6477676

Molecular target: T1, mStau2 dsRBD1-2 H36A (Mus musculus, UniProt Q8CJ67 8-181, H36A)
T1 sequence: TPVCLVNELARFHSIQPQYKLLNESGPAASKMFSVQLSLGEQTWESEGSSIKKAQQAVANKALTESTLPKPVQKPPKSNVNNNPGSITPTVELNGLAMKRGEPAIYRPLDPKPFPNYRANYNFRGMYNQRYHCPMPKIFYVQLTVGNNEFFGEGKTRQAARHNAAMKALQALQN
Experiment: SPR; Hill n 0.9; SPR: HBS-EP (10 mM HEPES pH 7.4, 150 mM NaCl, 3 mM EDTA, 0.005% P20); EMSA: 5 nM RNA, protein buffer (40 mM Bis-Tris pH 7, 150 mM NaCl, 2 mM DTT presumed), 4% glycerol, 30 ug/mL yeast tRNA, RT; NMR: 150 mM NaCl, 20 mM Na phosphate pH 7.0, 5 mM DTT, 298 K
Conditions: protein: recombinant; label: 5' 32P (EMSA); biotin (SPR); imperfect hairpin, 26 bp with two bulges
pKd: −log10 of the molar value.
readout.kind: pKd

>>> test_result("SRS* (SRS3) (structured_RNA) RNA: GGUAUGUGUGAAUGUGCAUGAAUAUAUAUAUAUAUGCAUAUAUAUAUUUGUAUAUGUUCACACAUG")
6.30
